Hello, the source for this data is patent US20230355618A1, in case you need it.

protocol: Phase 1 pediatric dose-escalation trial: pharmacokinetic studies (exposure, AUC0-∞)
Type: in vivo, human
stated_conditions: human, plasma, oral, 280 mg/m^2, Subject-3 (PNOC014-03); 18.1 kg; BSA 0.79 m^2; dose cohort 280 mg/m^2 by mouth once weekly; dose given 220 mg (12.2 mg/kg)

{"compound": "C[C@@H](NC(=O)c1ncnc(N)c1Cl)c1ncc(C(=O)Nc2cc(C(F)(F)F)c(Cl)cn2)s1 [Compound A]", "AUC(0-inf)": "0.324 µg·h/mL"}

---

protocol: Phase 1 pediatric dose-escalation trial: pharmacokinetic studies (exposure, AUC0-∞)
Type: in vivo, human
stated_conditions: human, plasma, oral, 280 mg/m^2, Subject-1 (PNOC014-01); 21.9 kg; BSA 0.86 m^2; dose cohort 280 mg/m^2 by mouth once weekly; dose given 240 mg (11.0 mg/kg)

{"chemical_string": "C[C@@H](NC(=O)c1ncnc(N)c1Cl)c1ncc(C(=O)Nc2cc(C(F)(F)F)c(Cl)cn2)s1", "AUC(0-inf)": "670 ng·h/mL"}
